assay: Cytotoxicity against human THP1 cells assessed as cell viability at 150 ug/ml after 48 hrs by MTT assay relative to control; format: cell-based; conditions: THP-1 cells, read-out: Activity
Sorting guide: entries reporting viability at 48 h, 150 ug/ml beneath 60% go in the met pile, the rest go in the not met pile.

[H]/N=C(/N)N[C@H]1[C@H](O)[C@@H](O)[C@H](O[C@@H]2O[C@@H](C)[C@](O)(C=O)[C@H]2O[C@@H]2O[C@@H](CO)[C@H](O)[C@@H](O)[C@@H]2NC)[C@@H](N/C(N)=N\[H])[C@@H]1O : met
O=c1cc(-c2ccccc2)c2ccc(-c3cn([C@@H]4O[C@H](CO)[C@@H](O)[C@H]4O)nn3)cc2o1 : not met
O=c1cc(-c2ccccc2)c2ccc(OCc3cn([C@@H]4O[C@H](CO)[C@@H](O)[C@H]4O)nn3)cc2o1 : not met
O=c1ccc2ccc(OCc3cn([C@@H]4O[C@H](CO)[C@@H](O)[C@H]4O)nn3)cc2o1 : met
O=C(OC[C@H]1O[C@@H](n2cc(COc3ccc4c(-c5ccccc5)cc(=O)oc4c3)nn2)[C@H](OC(=O)c2ccccc2)[C@@H]1OC(=O)c1ccccc1)c1ccccc1 : not met
NNC(=O)c1ccncc1 : met

====

assay: Cytotoxicity against human THP1 cells assessed as cell viability at 37.48 ug/ml after 24 hrs by MTT assay relative to control; format: cell-based; details: THP-1 cells, read-out: Activity
We begin with a simple list: items and their reported viability at 24 h, 37.48 ug/ml.
Parameter Measured: viability at 24 h, 37.48 ug/ml (%)

Cc1cc(=O)oc2cc(OCc3cn([C@@H]4O[C@H](CO)[C@@H](O)[C@H]4O)nn3)ccc12 : 100
Cc1cc(=O)oc2cc(-c3cn([C@@H]4O[C@H](CO)[C@@H](O)[C@H]4O)nn3)ccc12 : 99
O=c1cc(-c2ccccc2)c2ccc(-c3cn([C@@H]4O[C@H](CO)[C@@H](O)[C@H]4O)nn3)cc2o1 : 70
O=C(OC[C@H]1O[C@@H](n2cc(COc3ccc4c(-c5ccccc5)cc(=O)oc4c3)nn2)[C@H](OC(=O)c2ccccc2)[C@@H]1OC(=O)c1ccccc1)c1ccccc1 : 81
[H]/N=C(/N)N[C@H]1[C@H](O)[C@@H](O)[C@H](O[C@@H]2O[C@@H](C)[C@](O)(C=O)[C@H]2O[C@@H]2O[C@@H](CO)[C@H](O)[C@@H](O)[C@@H]2NC)[C@@H](N/C(N)=N\[H])[C@@H]1O [STREPTOMYCIN] : 89
NNC(=O)c1ccncc1 [ISONIAZID] : 68
O=c1cc(-c2ccccc2)c2ccc(OCc3cn([C@@H]4O[C@H](CO)[C@@H](O)[C@H]4O)nn3)cc2o1 : 94
O=c1ccc2ccc(OCc3cn([C@@H]4O[C@H](CO)[C@@H](O)[C@H]4O)nn3)cc2o1 : 86

====

assay: Cytotoxicity against human THP1 cells assessed as cell viability at 75 ug/ml after 48 hrs by MTT assay relative to control; assay type: cell-based; conditions: THP-1 cells, read-out: Activity
Parameter Measured: viability at 48 h, 75 ug/ml (%)

Cc1cc(=O)oc2cc(OCc3cn([C@@H]4O[C@H](CO)[C@@H](O)[C@H]4O)nn3)ccc12 : 68
Cc1cc(=O)oc2cc(-c3cn([C@@H]4O[C@H](CO)[C@@H](O)[C@H]4O)nn3)ccc12 : 64
O=c1cc(-c2ccccc2)c2ccc(-c3cn([C@@H]4O[C@H](CO)[C@@H](O)[C@H]4O)nn3)cc2o1 : 63
O=C(OC[C@H]1O[C@@H](n2cc(COc3ccc4c(-c5ccccc5)cc(=O)oc4c3)nn2)[C@H](OC(=O)c2ccccc2)[C@@H]1OC(=O)c1ccccc1)c1ccccc1 : 70
O=c1cc(-c2ccccc2)c2ccc(OCc3cn([C@@H]4O[C@H](CO)[C@@H](O)[C@H]4O)nn3)cc2o1 : 70
NNC(=O)c1ccncc1 [ISONIAZID] : 41
O=c1ccc2ccc(OCc3cn([C@@H]4O[C@H](CO)[C@@H](O)[C@H]4O)nn3)cc2o1 : 59
[H]/N=C(/N)N[C@H]1[C@H](O)[C@@H](O)[C@H](O[C@@H]2O[C@@H](C)[C@](O)(C=O)[C@H]2O[C@@H]2O[C@@H](CO)[C@H](O)[C@@H](O)[C@@H]2NC)[C@@H](N/C(N)=N\[H])[C@@H]1O [STREPTOMYCIN] : 69

Data origin, for the record: ChEMBL document CHEMBL4196081
